Below, each entry is listed with its recorded AUC.
- TEST_SUMMARY: Pharmacokinetic test in rats
- Assay type: in vivo, SD rats
- RUN_CONDITIONS: male, SD, rat, iv, plasma, i.v. 2.5 mg/kg
- Description: 1.1 Experimental animals: male SD rats, about 220 g, 6-8 weeks old, 6 rats/compound. Purchased from Chengdu Ddossy Experimental Animals Co., Ltd. […] Before and after the administration, 0.15 ml of blood was taken from the orbit of the animals under isoflurane anesthesia and placed in an EDTAK2 centrifuge tube. […] Before analysis and detection, all samples were stored at −80° C., and a quantitative analysis of samples was performed using LC-MS/MS.
Express it in ng·h/mL; write the number only.

Record Cc1nc(N2CCC(C3CN(C4CC(C)(C(=O)O)C4)CCO3)CC2)nc(NC(C)c2ccc(Cl)cc2Cl)c1Cl (single isomer, unassigned) [Compound 73 isomer 3] , field AUC: 4630

Form: compound = Cc1nc(N2CC(C3CN(C4CC(C)(C(=O)O)C4)CCO3)C2)nc(NC(C)c2ccc(Cl)cc2Cl)c1Cl (single isomer, unassigned) [Compound 9 isomer 3] ; AUC = 6280

AUC in this record for Cc1nc(N2CC(F)(C3CN(C4CC(C)(C(=O)O)C4)CCO3)C2)nc(N[C@H](C)c2ccc(Cl)cc2Cl)c1Cl (single isomer, unassigned) [Compound 64 isomer 3] : 6020

Looking up Cc1nc(N2CC3C(C2)C3C2CN(C3CC(C)(C(=O)O)C3)CCO2)nc(NC(C)c2ccc(Cl)cc2Cl)c1Cl (single isomer, unassigned) [Compound 78 isomer 3] , I found its AUC recorded as 4560

For reference, reported AUC for C[C@@H](Nc1cc(N2CC(C3CN(C4CC(C)(C(=O)O)C4)CCO3)C2)ccc1Cl)c1ccc(Cl)cc1Cl (single isomer, unassigned) [Compound 83 isomer 1] stands at 7320

* * *

Item-by-item account of AUC
- TEST_SUMMARY: Pharmacokinetic test in rats
- Format: in vivo, SD rats
- RUN_CONDITIONS: male, SD, rat, po, plasma, i.g. 10 mg/kg
Your reply should be a number followed by the unit it is expressed in.

Consider the following illustrative entries.
Cc1nc(N2CC(F)(C3CN(C4CC(C)(C(=O)O)C4)CCO3)C2)nc(N[C@H](C)c2ccc(Cl)cc2Cl)c1Cl (single isomer, unassigned) [Compound 64 isomer 3]	26100 ng·h/mL
Cc1nc(N2CC3C(C2)C3C2CN(C3CC(C)(C(=O)O)C3)CCO2)nc(NC(C)c2ccc(Cl)cc2Cl)c1Cl (single isomer, unassigned) [Compound 78 isomer 3]	28400 ng·h/mL
Cc1nc(N2CCC(C3CN(C4CC(C)(C(=O)O)C4)CCO3)CC2)nc(NC(C)c2ccc(Cl)cc2Cl)c1Cl (single isomer, unassigned) [Compound 73 isomer 3]	14900 ng·h/mL
Cc1nc(N2CC(C3CN(C4CC(C)(C(=O)O)C4)CCO3)C2)nc(NC(C)c2ccc(Cl)cc2Cl)c1Cl (single isomer, unassigned) [Compound 9 isomer 3]	24800 ng·h/mL

Let us move to another entry and its AUC.
Reported AUC for C[C@@H](Nc1cc(N2CC(C3CN(C4CC(C)(C(=O)O)C4)CCO3)C2)ccc1Cl)c1ccc(Cl)cc1Cl (single isomer, unassigned) [Compound 83 isomer 1] was 37000 ng·h/mL
